Sourced from patent US11351173B2

Experiment: Compound solubility in water
Details: water, Compound Solubility in Water, in water
Binary classification by solubility, with 7 µg/mL as an inclusive lower bound for Criterion met; all other cases are Criterion not met.

molecule | class-assignment
Cc1ccn2ccc(C(=O)Nc3ccc(-c4ncco4)cc3)c2n1 | Criterion not met
Cc1ccnc2c(C(=O)NC3(C)CCOc4ccccc43)ccn12 (centres unmarked) | Criterion met
Cc1cc(C)n2ccc(C(=O)NC3CCc4ccccc4C3)c2n1 (centres unmarked) | Criterion not met
Cc1ccnc2c(C(=O)N[C@H]3CCCc4ccccc43)ccn12 | Criterion not met

###

Reported log10 solubility by item:
Experiment: Compound solubility in water
Conditions: water, Compound Solubility in Water
observation-type: log10 solubility (log10 of the value in µg/mL)

molecule | observation-type | observed-measurement
Cc1cc(C)n2ccc(C(=O)Nc3ccc(-c4ccncc4)cc3)c2n1 | log10 solubility | -2.00
Cc1cc(C(F)F)n2ccc(C(=O)NC3CCCc4ccccc43)c2n1 (stereo not drawn) | log10 solubility | -0.15
Cc1cc(C)n2ccc(C(=O)NC3CCCc4ccccc43)c2n1 (stereo not drawn) | log10 solubility | -0.10
Cc1cc(C)n2ccc(C(=O)NC3CCCc4cnccc43)c2n1 (stereo not drawn) | log10 solubility | 1.21
COCc1cc(C(F)F)nc2c(C(=O)NC3(C)CCOc4cc(F)c(F)cc43)ccn12 (stereo not drawn) | log10 solubility | 0.18
COC1CCCCC1NC(=O)c1ccn2c(C)cc(C)nc12 (stereo not drawn) | log10 solubility | 1.48
Cc1cc(C)n2ccc(C(=O)NC3CCCCC34CCCCO4)c2n1 (stereo not drawn) | log10 solubility | 0.83
Cc1cc(C)n2ccc(C(=O)Nc3ccc(-c4cccs4)nc3)c2n1 | log10 solubility | -2.00
[2H]c1c(C([2H])([2H])[2H])nc2c(C(=O)NC(C)(C)c3ccc(F)cc3)cc([2H])n2c1C([2H])([2H])[2H] | log10 solubility | 0.20

###

Let's look at some molecules and their measured solubility.
Assay: Compound solubility in water
Conditions: water, Compound Solubility in Water

molecule | prefix-operator | solubility, µg/mL
Cc1cc(C)n2ccc(C(=O)NC3CCCCC34CCOCC4)c2n1 (stereo not drawn) | = | 19.5
CCCCCO[C@H]1CC[C@H](NC(=O)c2ccn3c(C(F)F)cc(C(F)F)nc23)CC1 | = | 0.4
CCCCO[C@H]1CC[C@H](NC(=O)c2ccn3c(COC)cc(C(F)F)nc23)CC1 | = | 1.8
CO[C@H]1CC[C@@H](C(C)(C)NC(=O)c2ccn3c(C)cc(Cl)nc23)CC1 | = | 0.04
CCCCCOc1ccc(NC(=O)c2ccn3c(C)cc(C)nc23)cc1 | < | 0.1
O=C(Nc1ccc(-c2cocn2)cc1)c1ccn2c(C(F)F)cc(C(F)F)nc12 | = | 0.06
Cc1cc(C)n2ccc(C(=O)NC(C)(C)c3ccccc3)c2n1 | = | 3
CNc1cc(C)n2ccc(C(=O)N[C@H]3CC[C@H](OCC(C)C)CC3)c2n1 | = | 1
COc1cc(-c2cnco2)ccc1NC(=O)c1ccn2c(C)cc(C)nc12 | = | 0.4

###

Biological target: glucocerebrosidase (Gcase) (Homo sapiens)
Construct: micellar solution containing 10 nM GCase and 100 nM saposin C
Sequence (P04062 40-536): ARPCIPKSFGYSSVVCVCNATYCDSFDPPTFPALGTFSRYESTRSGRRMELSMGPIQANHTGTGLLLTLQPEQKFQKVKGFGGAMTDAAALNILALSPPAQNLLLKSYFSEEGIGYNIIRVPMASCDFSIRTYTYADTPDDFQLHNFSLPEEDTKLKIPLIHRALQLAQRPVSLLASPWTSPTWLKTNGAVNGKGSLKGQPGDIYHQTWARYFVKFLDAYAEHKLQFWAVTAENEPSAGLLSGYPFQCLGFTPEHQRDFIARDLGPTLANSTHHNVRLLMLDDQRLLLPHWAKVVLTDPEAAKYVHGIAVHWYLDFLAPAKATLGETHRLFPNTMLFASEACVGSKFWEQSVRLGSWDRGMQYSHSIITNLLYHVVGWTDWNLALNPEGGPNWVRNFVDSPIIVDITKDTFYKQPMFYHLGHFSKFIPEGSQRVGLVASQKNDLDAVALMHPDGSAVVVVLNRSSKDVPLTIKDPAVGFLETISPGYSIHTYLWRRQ
Assay: Glucocerebrosidase (Gcase) activation assay, 4-methylumbelliferyl-beta-D-glucopyranoside substrate, fluorescence readout
Format: biochemical
Details: test compound at 1.0 μM; read-out: Percent Gcase Activation, 1 μM Test Compound

compound | activation at 1 µM
Cc1cc(C)n2ccc(C(=O)NC3Cc4ccccc4C3)c2n1 | > 60%
Cc1cc(C)n2ccc(C(=O)NC3CCCc4ccncc43)c2n1 (stereo not drawn) | < 30%
Cc1ccn2ccc(C(=O)Nc3ccc(-c4ncco4)cc3)c2n1 | < 30%
COCCOc1ccc2c(c1)C(NC(=O)c1ccn3c(C)cc(C)nc13)CCC2 (stereo not drawn) | > 60%
Cc1cc(C)n2ccc(C(=O)NC3CCOc4ccc(F)cc43)c2n1 (stereo not drawn) | > 60%
Cc1cc(C)n2ccc(C(=O)NC3CCCC(Oc4cccs4)C3)c2n1 (stereo not drawn) | > 60%
Cc1cc(C)n2ccc(C(=O)Nc3ccc(-c4ccco4)nc3)c2n1 | > 60%
Cc1cc(C)n2ccc(C(=O)N[C@H]3CC[C@@H](Oc4cccs4)CC3)c2n1 | > 60%
COCc1cc(C)n2ccc(C(=O)NC(C)(C)c3ccc(-c4cocn4)cc3)c2n1 | > 60%
